Every entry's value here was drawn from patent US20250206836A1.

Target entity: T1, human CD36 (on HEK 293 or SCC25 cells) (human, UniProt P16671 2-472)
T1 construct: Overexpressed transiently or stably on HEK 293 cells, or stably on SCC25 cells; also called huCD36
T1 sequence (P16671 2-472 limits assumed): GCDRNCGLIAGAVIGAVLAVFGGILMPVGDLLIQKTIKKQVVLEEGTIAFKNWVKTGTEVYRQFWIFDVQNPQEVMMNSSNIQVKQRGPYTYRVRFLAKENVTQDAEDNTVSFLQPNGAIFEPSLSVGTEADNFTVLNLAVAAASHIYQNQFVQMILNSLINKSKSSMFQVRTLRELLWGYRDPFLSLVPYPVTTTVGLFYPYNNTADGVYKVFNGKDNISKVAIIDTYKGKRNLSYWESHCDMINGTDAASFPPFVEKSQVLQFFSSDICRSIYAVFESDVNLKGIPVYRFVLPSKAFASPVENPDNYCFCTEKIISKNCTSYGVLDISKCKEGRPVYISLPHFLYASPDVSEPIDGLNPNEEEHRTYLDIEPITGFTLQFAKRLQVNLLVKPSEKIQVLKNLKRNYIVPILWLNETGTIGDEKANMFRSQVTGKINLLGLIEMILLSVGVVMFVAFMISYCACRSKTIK
Test method notes: FACS, SCC25 cells stably overexpressing human CD36
For each of the binders below, state its EC50.
The answer is to be given in nM; state only the numeric part.

Find the measured EC50 of 12G04 (antibody, human IgG1, V domains shown, Chimeric: mouse variable regions on human IgG1 LALA (L234A/L235A); also called 012G04) VH: EVQLVESGGGLVQPGESLKLSCESNEYEFPSHDMSWVRKTPEKRLELVAAINSDGGYTYYPDTMERRFIISRDNTKKTLYLQMSSLRSEDTALYYCARHGYDYDEEGAWFAYWGQGTLVTVSA VL: ETTVTQSPASLSMAIGEKVTIRCITSTDIDDDMNWYQQKPGEPPKLLISEGNTLRPGVPSRFSSTGYGTDFVFSIENMLSEDVADYYCLQSDNLPFTFGSGTKLEIK and report it.
0.39

Supply measured EC50 of 16G04 (antibody, human IgG1, V domains shown, Chimeric: mouse variable regions on human IgG1 LALA (L234A/L235A); also called 016G04) VH: EVQLQQSGPELVKPGASVKISCKTSGYTFTEYTMHWVKQSHGKSLEWIGGINPYNGGTAYNQKFKNKATLTVDISSNTAFMEFRSLTSEDSAVYYCASDYFYGDANPWFAYWGQGTLVTVSA VL: ETTVTQSPASLSMAIGEKVTIRCITSTDIDDDMNWYQQKPGEPPKLLISEGNTLRPGVPSRFSSSGYGTDFVFTIENMLSEDVADYYCLQSDNLPLTFGAGTKLELK in your reply.
0.57

Please give the documented EC50 of 14G04 (antibody, human IgG1, V domains shown, Chimeric: mouse variable regions on human IgG1 LALA (L234A/L235A); also called 014G04) VH: QVQLQQSGAELVRSGASVRLSCTASGFNIKDYYIHWVKQRPEQGLEWIGWIDPENGDTEYAPRFQDKATMTADTSSNTAYLQLSSLTSEDTAVYYCNGWLLSGNGMDYWGQGTSVTVSS VL: DIVMTQSHKFMSTSVGDRVSITCKASQDVGTAVAWYQQKPGQSPKLLIYWASTRHTGVPDRFTGSGSGTDFTLTISNVQSEDLADYFCQQYSSYPTFGGGTKLEIK
0.41

Provide one value: measured EC50 of 11G04 (antibody, human IgG1, V domains shown, Chimeric: mouse variable regions on human IgG1 LALA (L234A/L235A); also called 011G04) VH: EVQLQQSGAELVRPGASVTLSCKASGYRFSDYEMQWVKQTPVHGLEWIGGIDPETGGIAYNQKFKVKATLTADKSSSTAFMELRSLTSEDSAVYYCTRKLDFDYWGQGTTLTVSS VL: ETTVTQSPASLSVATGEKVTIRCITSTDIDDDMNWYQQKPGEPPKLLISEGNTLRPGVPSRFSSSGYGTDFVFTIENMLSEDVADYYCLQSDNLPLTFGAGTKLELK
0.46
